src = patent US4683291A

target: platelet receptor, the GPIIb/IIIa complex (Homo sapiens, UniProt P05106+P08514); construct: Platelets were isolated from normal platelet-rich plasma and washed by the albumin density gradient technique; endogenous in cells; host or cells: washed platelets from normal platelet-rich plasma, thrombin-stimulated; assay: Inhibition of 125I-fibrinogen binding to thrombin-stimulated washed platelets; conditions: fibrinogen-platelet binding; read-out: IC50
Sequence (P08514 32-887 limits assumed): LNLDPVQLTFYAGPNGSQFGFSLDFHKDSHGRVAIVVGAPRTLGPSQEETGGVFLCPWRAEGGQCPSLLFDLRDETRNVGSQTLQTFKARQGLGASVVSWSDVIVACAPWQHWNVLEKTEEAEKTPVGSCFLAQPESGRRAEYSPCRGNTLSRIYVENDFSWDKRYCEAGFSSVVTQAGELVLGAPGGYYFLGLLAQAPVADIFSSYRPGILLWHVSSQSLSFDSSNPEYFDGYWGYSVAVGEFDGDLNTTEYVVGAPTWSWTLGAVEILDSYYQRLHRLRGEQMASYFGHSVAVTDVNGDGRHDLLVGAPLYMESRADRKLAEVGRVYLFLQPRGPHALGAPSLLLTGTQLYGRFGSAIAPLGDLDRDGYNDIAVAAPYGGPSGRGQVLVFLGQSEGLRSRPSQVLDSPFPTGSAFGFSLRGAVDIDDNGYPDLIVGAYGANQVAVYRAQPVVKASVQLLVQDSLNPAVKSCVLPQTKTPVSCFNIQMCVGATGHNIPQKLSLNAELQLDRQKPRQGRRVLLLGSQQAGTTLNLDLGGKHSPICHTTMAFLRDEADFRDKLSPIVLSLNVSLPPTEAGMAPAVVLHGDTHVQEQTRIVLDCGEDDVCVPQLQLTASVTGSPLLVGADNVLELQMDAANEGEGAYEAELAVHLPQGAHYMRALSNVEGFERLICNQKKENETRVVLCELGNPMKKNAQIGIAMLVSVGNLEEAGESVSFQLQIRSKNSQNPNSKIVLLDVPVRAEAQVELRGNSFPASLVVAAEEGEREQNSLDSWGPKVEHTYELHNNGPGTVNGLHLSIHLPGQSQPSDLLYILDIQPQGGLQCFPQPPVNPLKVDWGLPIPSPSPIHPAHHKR
Sequence (P08514 891-1039 limits assumed): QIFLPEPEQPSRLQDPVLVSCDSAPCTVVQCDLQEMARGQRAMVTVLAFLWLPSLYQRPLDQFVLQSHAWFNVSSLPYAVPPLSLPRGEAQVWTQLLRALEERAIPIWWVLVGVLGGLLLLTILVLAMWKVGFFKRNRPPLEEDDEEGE
Sequence (P05106 27-788): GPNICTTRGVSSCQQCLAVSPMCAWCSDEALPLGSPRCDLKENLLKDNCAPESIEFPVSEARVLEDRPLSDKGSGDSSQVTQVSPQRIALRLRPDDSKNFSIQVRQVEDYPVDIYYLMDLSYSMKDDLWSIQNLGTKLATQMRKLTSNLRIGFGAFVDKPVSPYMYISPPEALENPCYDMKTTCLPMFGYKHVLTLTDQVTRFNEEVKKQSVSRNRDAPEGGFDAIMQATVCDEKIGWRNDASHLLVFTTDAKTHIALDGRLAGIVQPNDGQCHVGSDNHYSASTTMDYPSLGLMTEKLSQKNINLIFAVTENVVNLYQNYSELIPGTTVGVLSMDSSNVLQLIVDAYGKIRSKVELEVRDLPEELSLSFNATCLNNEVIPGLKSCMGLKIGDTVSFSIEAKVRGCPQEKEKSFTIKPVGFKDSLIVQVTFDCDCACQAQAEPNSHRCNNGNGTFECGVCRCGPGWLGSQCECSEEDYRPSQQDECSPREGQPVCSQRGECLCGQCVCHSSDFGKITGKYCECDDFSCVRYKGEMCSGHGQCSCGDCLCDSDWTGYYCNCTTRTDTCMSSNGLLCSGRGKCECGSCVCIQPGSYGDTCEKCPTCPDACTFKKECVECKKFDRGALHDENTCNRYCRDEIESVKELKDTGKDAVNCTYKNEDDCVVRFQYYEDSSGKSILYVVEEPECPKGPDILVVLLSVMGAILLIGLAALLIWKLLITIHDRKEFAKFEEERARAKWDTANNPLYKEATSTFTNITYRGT
No end group written: not given here.
VALUE_TYPE: IC50 (nM)
Numbers only, in nM.

Answer with the recorded IC50 of "KRKRKRKRRGDV" only.
400

---

target: platelet receptor, the GPIIb/IIIa complex (Homo sapiens, UniProt P05106+P08514); construct: Platelets were isolated from normal platelet-rich plasma and washed by the albumin density gradient technique; endogenous in cells; host or cells: washed platelets from normal platelet-rich plasma, thrombin-stimulated; test: Inhibition of 125I-fibrinogen binding to thrombin-stimulated washed platelets; details: read-out: Typical IC50 (micromolar) IC50
No end group written: not given here.
Threshold 3 µM: IC50 strictly smaller gives class 1, otherwise class 0.

HHKRKRKQRGDS class 0
HHRRRRRRRGDV class 1
HHKRKRKRRGDS class 0
HHLRGRKQRGDV class 0

Please look at the following sequence next.
Is 3 µM strictly greater than the sequence's reported IC50? sequence: "HHKKKKKKRGDV"
class 1

---

target: platelet receptor, the GPIIb/IIIa complex (Homo sapiens, UniProt P05106+P08514); construct: Platelets were isolated from normal platelet-rich plasma and washed by the albumin density gradient technique; endogenous in cells; host or cells: washed platelets from normal platelet-rich plasma, thrombin-stimulated; experiment: Inhibition of 125I-fibrinogen binding to thrombin-stimulated washed platelets; conditions: read-out: Typical IC50 (micromolar) IC50
No end group written: not given here.
VALUE_TYPE: IC50 (µM)
Numbers only, in µM.

Worked examples follow.
HHLRGKKQRGDV 11.2
HHLGGRKQRGDV 6.3
HHLGGAKQRGDV 14.5
KKKKKKKKRGDV 4.1
HHLRKRKQRGDV 4.4
HHLGRRKQRGDV 5.4

Provide the reported IC50 of each entry below, same order.
1. HHLGGKKQRGDV
2. HHKRKRKQRGDV
3. RRRRRRRRRGDV

[13.2, 3.3, 0.2]
